System: AmCYP12_1 (Seq ID 45)
Experiment: Herbicide degradation in transgenic yeast cells expressing cytochrome P450 AmCYP12_1
Assay type: in vitro ADME, Alopecurus myosuroides
Details: transgenic yeast cells (S. cerevisiae BJ5459) expressing AmCYP12_1, Seq ID 45, recovery of herbicide in reference to control, UPLC-MS/MS
With a cut-off of 4, any Degradation rate of listed herbicidal compounds within 24 h strictly below it is called True; any Degradation rate of listed herbicidal compounds within 24 h meeting it or above is called False.

# TODO verify Degradation rate of listed herbicidal compounds within 24 h < 4 strictly for this compound: N#Cc1ccc(C2=C(O)c3ncccc3N(CC(F)F)S2(=O)=O)c(C(F)(F)F)c1 [Coumarone-derivative 2]
False

API: query returns whether the compound falls strictly under 4 in Degradation rate of listed herbicidal compounds within 24 h. Query: COc1ccc(C2=C(O)c3ncccc3C(C)(C)S2(=O)=O)c(C(F)(F)F)n1 [Coumarone-derivative 8]
True

I wonder whether O=S1(=O)C(c2c(Cl)cc(Cl)nc2Cl)=C(O)c2ncccc2N1CC(F)F [Coumarone-derivative 9] has Degradation rate of listed herbicidal compounds within 24 h below 4. Can you tell?
True

Determine whether this compound shows Degradation rate of listed herbicidal compounds within 24 h lower than 4 (ties excluded): Cc1c(Cl)ccc(Cl)c1C1=C(O)c2ncccc2C(C)(C)S1(=O)=O [Coumarone-derivative 11]
True

Quick check: does CC1(C)c2cccnc2C(O)=C(c2ccc(Cl)nc2Cl)S1(=O)=O [Coumarone-derivative 5] have Degradation rate of listed herbicidal compounds within 24 h under 4?
False

Confirm or reject: Degradation rate of listed herbicidal compounds within 24 h of Cc1ccc(NC(=O)N(C)C)cc1Cl [Chlorotoluron, reference compound] lies strictly below 4
False

Okay, next one:
Here's an entry: C#CCN1C(=O)C(F)(F)Oc2cc(F)c(-n3c(=O)n(C)c(=S)n(C)c3=O)cc21 [reference compound] . Is its Degradation rate of listed herbicidal compounds within 24 h below 4?
False

---

As shown below, each of these compounds has a reported Degradation rate of listed herbicidal compounds within 24 h value.
Tested on: AmCYP03b (Seq ID 6)
Test: Herbicide degradation in transgenic yeast cells expressing cytochrome P450 AmCYP03b
Assay type: in vitro ADME, Alopecurus myosuroides
Details: transgenic yeast cells (S. cerevisiae BJ5459) expressing AmCYP03b, recovery of herbicide in reference to control, UPLC-MS/MS
Give the value as a plain number.

Below, each entry is followed by its recorded Degradation rate of listed herbicidal compounds within 24 h result.
The recorded Degradation rate of listed herbicidal compounds within 24 h for CC1(C)c2cccnc2C(O)=C(c2ccc(Cl)nc2Cl)S1(=O)=O [Coumarone-derivative 5] is 17

Field Degradation rate of listed herbicidal compounds within 24 h (entry Cc1c(Cl)ccc(Cl)c1C1=C(O)c2ncccc2C(C)(C)S1(=O)=O [Coumarone-derivative 11] ) reads 18

Measured Degradation rate of listed herbicidal compounds within 24 h of CC1=NOC(c2c(Cl)ccc(C3=C(O)c4ncccc4C(C)(C)S3(=O)=O)c2Cl)C1 (centres unmarked) [Coumarone-derivative 6] : 0

// recorded Degradation rate of listed herbicidal compounds within 24 h for COc1ccc(C2=C(O)c3ncccc3C(C)(C)S2(=O)=O)c(C(F)(F)F)n1 [Coumarone-derivative 8] : 0

Entry under test: CCC(CC)Nc1c([N+](=O)[O-])cc(C)c(C)c1[N+](=O)[O-] [pendimethalin, reference compound] . Its Degradation rate of listed herbicidal compounds within 24 h was 24

What the record says about O=S1(=O)Cc2cccnc2C(O)=C1c1ccccc1C(F)(F)F [Coumarone-derivative 3] : Degradation rate of listed herbicidal compounds within 24 h is 0

Data point: Cc1ccc(NC(=O)N(C)C)cc1Cl [Chlorotoluron, reference compound] ; Degradation rate of listed herbicidal compounds within 24 h = 29

Turning now to a further compound:
Degradation rate of listed herbicidal compounds within 24 h in this record for CN(c1c(Cl)ccc(C2=C(O)c3ncccc3C(C)(C)S2(=O)=O)c1Cl)S(C)(=O)=O [Coumarone-derivative 10] : 9

---

Here the recorded Degradation rate of listed herbicidal compounds within 24 h is given for each entry.
System: AmCYP01 (Seq ID 2)
Assay: Herbicide degradation in transgenic yeast cells expressing cytochrome P450 AmCYP01
Assay type: in vitro ADME, Alopecurus myosuroides
Settings: transgenic yeast cells (S. cerevisiae BJ5459) expressing AmCYP01, Seq ID 2, recovery of herbicide in reference to control, UPLC-MS/MS
A bare number is all that is needed in reply.

For orientation, consider the following solved cases.
Measured Degradation rate of listed herbicidal compounds within 24 h, O=S1(=O)C(c2c(Cl)cc(Cl)nc2Cl)=C(O)c2ncccc2N1CC(F)F [Coumarone-derivative 1] : 0

Value of measured Degradation rate of listed herbicidal compounds within 24 h for the entry N#Cc1ccc(C2=C(O)c3ncccc3N(CC(F)F)S2(=O)=O)c(C(F)(F)F)c1 [Coumarone-derivative 2] : 0

What the record says about CN(c1c(Cl)ccc(C2=C(O)c3ncccc3C(C)(C)S2(=O)=O)c1Cl)S(C)(=O)=O [Coumarone-derivative 10] : Degradation rate of listed herbicidal compounds within 24 h is 0

Per the records, this molecule ( COc1ccc(C2=C(O)c3ncccc3C(C)(C)S2(=O)=O)c(C(F)(F)F)n1 [Coumarone-derivative 8] ) has Degradation rate of listed herbicidal compounds within 24 h equal to 0

Recorded result, CCC(CC)Nc1c([N+](=O)[O-])cc(C)c(C)c1[N+](=O)[O-] [pendimethalin, reference compound] , Degradation rate of listed herbicidal compounds within 24 h: 13

The measured Degradation rate of listed herbicidal compounds within 24 h associated with C#CCN1C(=O)C(F)(F)Oc2cc(F)c(-n3c(=O)n(C)c(=S)n(C)c3=O)cc21 [reference compound] reads 17

***
Record CC1=NOC(c2c(Cl)ccc(C3=C(O)c4ncccc4C(C)(C)S3(=O)=O)c2Cl)C1 (stereo not drawn) [Coumarone-derivative 6] . Reported Degradation rate of listed herbicidal compounds within 24 h: 1

What the record says about CC(C)N(C)S(=O)(=O)NC(=O)c1cc(-n2c(=O)cc(C(F)(F)F)n(C)c2=O)c(F)cc1Cl [saflufenacil, reference compound] : Degradation rate of listed herbicidal compounds within 24 h is 20

Record summary for CC1(C)c2cccnc2C(O)=C(c2ccc(Cl)nc2Cl)S1(=O)=O [Coumarone-derivative 5] : reported Degradation rate of listed herbicidal compounds within 24 h = 14

---

Measured Degradation rate of listed herbicidal compounds within 24 h of individual entries
Tested on: AmCYP04 (Seq ID 27)
Assay: Herbicide degradation in transgenic yeast cells expressing cytochrome P450 AmCYP04
Type: in vitro ADME, Alopecurus myosuroides
Conditions: transgenic yeast cells (S. cerevisiae BJ5459) expressing AmCYP04, Seq ID 27, recovery of herbicide in reference to control, UPLC-MS/MS
Give only the figure.

Below are worked cases with known answers.
According to the records, this molecule `O=S1(=O)Cc2cccnc2C(O)=C1c1ccccc1C(F)(F)F` displays Degradation rate of listed herbicidal compounds within 24 h of 9

# Degradation rate of listed herbicidal compounds within 24 h of `Cc1c(Cl)ccc(Cl)c1C1=C(O)c2ncccc2C(C)(C)S1(=O)=O` = 0

Degradation rate of listed herbicidal compounds within 24 h reported for this molecule CC1=NOC(c2c(Cl)ccc(C3=C(O)c4ncccc4C(C)(C)S3(=O)=O)c2Cl)C1 (stereo not shown) : 0

---
Just so you know, measured Degradation rate of listed herbicidal compounds within 24 h for C#CCN1C(=O)C(F)(F)Oc2cc(F)c(-n3c(=O)n(C)c(=S)n(C)c3=O)cc21 [reference compound] came out at 24

Lookup result for Cc1ccc(NC(=O)N(C)C)cc1Cl [Chlorotoluron, reference compound] ; measured Degradation rate of listed herbicidal compounds within 24 h: 26

Form field Degradation rate of listed herbicidal compounds within 24 h, entry CCC(CC)Nc1c([N+](=O)[O-])cc(C)c(C)c1[N+](=O)[O-] [pendimethalin, reference compound] : 25

The molecule identified as `N#Cc1ccc(C2=C(O)c3ncccc3N(CC(F)F)S2(=O)=O)c(C(F)(F)F)c1` registered its Degradation rate of listed herbicidal compounds within 24 h at 0

---

// Degradation rate of listed herbicidal compounds within 24 h lookup, one value per entry
Tested on: AmCYP04 (Seq ID 27)
Assay: Herbicide degradation in transgenic yeast cells expressing cytochrome P450 AmCYP04
Format: in vitro ADME, Alopecurus myosuroides
Conditions: transgenic yeast cells (S. cerevisiae BJ5459) expressing AmCYP04, Seq ID 27, recovery of herbicide in reference to control, UPLC-MS/MS
I only need the number, thanks.

Sample records with Degradation rate of listed herbicidal compounds within 24 h:
Recorded Degradation rate of listed herbicidal compounds within 24 h (molecule `COCCOCc1c(Cl)ccc(C2=C(O)c3ncccc3C(C)(C)S2(=O)=O)c1Cl` ): 7

Per the records, this molecule ( `COc1ccc(C2=C(O)c3ncccc3C(C)(C)S2(=O)=O)c(C(F)(F)F)n1` ) has Degradation rate of listed herbicidal compounds within 24 h equal to 0

Sure, the documented Degradation rate of listed herbicidal compounds within 24 h for O=S1(=O)C(c2c(Cl)cc(Cl)nc2Cl)=C(O)c2ncccc2N1CC(F)F [Coumarone-derivative 9] is 18

For the next question, use this molecule.
# Degradation rate of listed herbicidal compounds within 24 h of `CC1(C)c2cccnc2C(O)=C(c2ccc(Cl)nc2Cl)S1(=O)=O` = 22
